- assay.target: T1, NLpoly WT
- T1 construct: also called WT NLpoly
- T1 chain: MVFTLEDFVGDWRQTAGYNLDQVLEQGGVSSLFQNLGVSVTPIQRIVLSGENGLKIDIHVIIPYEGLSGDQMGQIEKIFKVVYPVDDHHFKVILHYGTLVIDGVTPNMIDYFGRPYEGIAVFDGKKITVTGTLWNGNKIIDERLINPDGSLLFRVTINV
- assay.protocol: luminescence complementation titration (E. coli lysate NLpoly, synthetic NLpep), one site-specific binding fit
pKd: −log10 of the molar value.
measured.metric: pKd

Ask: Answer with the recorded pKd of GVTGWRLCERILA (also called NLpepWT; NLPep1 (WT)) [NLpep1] only.
Reply: ~5.00
